# Species on record: Rattus norvegicus
# PROCEDURE TEXT: DrugMatrix - Regimen: Daily Repeat
# Format: toxicity, organism-based, Sprague-Dawley
# Design: regimen Daily Repeat, gender Male, age 6-8 weeks
# EXPERIMENTAL PARAMETERS: in vivo, po, 35 mg/kg, 120 h, tissue Blood, route oral GAVAGE, dose level Low, time 5 day, […]
MEASURED ENDPOINT: ABSOLUTE BASOPHIL (cells/µL)

# COMPOUND STRUCTURE STRING, OBSERVED MEASUREMENT
rows = [
    ("Cc1ccc(-c2cc(C(F)(F)F)nn2-c2ccc(S(N)(=O)=O)cc2)cc1", 56.7),
]

###

URIC ACID reference
# Species on record: Rattus norvegicus
# PROCEDURE TEXT: DrugMatrix - Regimen: Daily Repeat
# Format: toxicity, organism-based, Sprague-Dawley
# Parameters: regimen Daily Repeat, gender Male, age 6-8 weeks
# EXPERIMENTAL PARAMETERS: in vivo, iv, 0 mg/kg, 72 h, tissue Plasma, dose level Control, time 3 day, vehicle 100 % SALINE
Starred links: 1 amine or outer side, 2 acyl side, 3 side chain; linkers in the order of their positions; H or OH if unused. Positions of bridges follow the written chain, without caps; N, C: chain ends. Non-standard residues stand in square brackets, D forms with d. Residues, ends and D or L forms follow the SMILES beside them. Chains are numbered I, II in the order given. Actinocin(9to1) = Cc1c2oc3c(C)ccc(C(=O)[*:1])c3nc-2c(C(=O)[*:2])c(N)c1=O; NMeV = CN[C@H](C(=O)O)C(C)C; Sar = CNCC(=O)O

# MOLECULE, URIC ACID [mg/dL]
measured = [
    ("Cc1c2oc3c(C)ccc(C(=O)N[C@@H]4C(=O)N[C@H](C(C)C)C(=O)N5CCC[C@H]5C(=O)N(C)CC(=O)N(C)[C@@H](C(C)C)C(=O)O[C@@H]4C)c3nc-2c(C(=O)N[C@@H]2C(=O)N[C@H](C(C)C)C(=O)N3CCC[C@H]3C(=O)N(C)CC(=O)N(C)[C@@H](C(C)C)C(=O)O[C@@H]2C)c(N)c1=O [DACTINOMYCIN] (I: T[dV]P[Sar][NMeV] / II: T[dV]P[Sar][NMeV]; ester I:1-I:C, II:1-II:C; linker I:N-II:N via Actinocin(9to1))", 1.28),
    ("Cc1ccc(N(CC2=NCCN2)c2cccc(O)c2)cc1", 1.9),
    ("CC[C@]1(O)C[C@H]2CN(CCc3c([nH]c4ccccc34)[C@@](C(=O)OC)(c3cc4c(cc3OC)N(C=O)[C@H]3[C@@](O)(C(=O)OC)[C@H](OC(C)=O)[C@]5(CC)C=CCN6CC[C@]43[C@@H]65)C2)C1", 0.83),
    ("COc1cc2c3cc1Oc1cc(ccc1O)C[C@@H]1c4c(cc(OC)c(O)c4Oc4ccc(cc4)C[C@@H]3N(C)CC2)CC[N+]1(C)C.[Cl-]", 1.43),
]

###

# Organism: Rattus norvegicus
# PROCEDURE TEXT: DrugMatrix - Regimen: Daily Repeat
# Assay type: toxicity, organism-based, Sprague-Dawley
# Set-up: regimen Daily Repeat, gender Male, age 6-8 weeks
# EXPERIMENTAL PARAMETERS: in vivo, po, 0 mg/kg, 120 h, tissue Plasma, route oral GAVAGE, dose level Control, time 5 day, […]

# COMPOUND, LIPASE [u/L]
records = [
    ("CC(C)(Oc1ccc(Cl)cc1)C(=O)O", 10.17),
    ("Cc1oncc1C(=O)Nc1ccc(C(F)(F)F)cc1 [LEFLUNOMIDE]", 11.67),
    ("OC(Cn1cncn1)(Cn1cncn1)c1ccc(F)cc1F", 6.83),
    ("CCOC(=O)C1=C(COCCN)NC(C)=C(C(=O)OC)C1c1ccccc1Cl (stereo not drawn)", 14.83),
    ("CN(C)c1nc(N(C)C)nc(N(C)C)n1", 14.83),
    ("C[C@H]1O[C@@H](O[C@H]2[C@@H](O)C[C@H](O[C@H]3[C@@H](O)C[C@H](O[C@H]4CC[C@@]5(C)[C@H](CC[C@@H]6[C@@H]5C[C@@H](O)[C@]5(C)[C@@H](C7=CC(=O)OC7)CC[C@]65O)C4)O[C@@H]3C)O[C@@H]2C)C[C@H](O)[C@@H]1O", 9.5),
    ("O=NN(CCCl)C(=O)NC1CCCCC1", 14.83),
    ("O=c1oc2ccccc2c(O)c1Cc1c(O)c2ccccc2oc1=O", 10.5),
]

###

# Species on record: Rattus norvegicus
# PROCEDURE TEXT: DrugMatrix - Regimen: Daily Repeat
# Type: toxicity, organism-based, Sprague-Dawley
# Parameters: regimen Daily Repeat, gender Male, age 6-8 weeks
# EXPERIMENTAL PARAMETERS: in vivo, po, 0 mg/kg, 72 h, tissue Blood, route oral GAVAGE, dose level Control, time 3 day, […]

# COMPOUND, LYMPHOCYTE
measured = [
    ("CC(C)(Oc1ccc(Cl)cc1)C(=O)O", "88.83%"),
    ("O=C(O)CCCc1ccc(N(CCCl)CCCl)cc1", "87.5%"),
    ("CCOC(=O)C1=C(COCCN)NC(C)=C(C(=O)OC)C1c1ccccc1Cl (configuration not stated)", "91%"),
    ("Cc1oncc1C(=O)Nc1ccc(C(F)(F)F)cc1 [LEFLUNOMIDE]", "87%"),
    ("CN(C)c1nc(N(C)C)nc(N(C)C)n1", "91%"),
    ("CCC(C)n1ncn(-c2ccc(N3CCN(c4ccc(OCC5COC(Cn6cncn6)(c6ccc(Cl)cc6Cl)O5)cc4)CC3)cc2)c1=O (configuration not stated)", "87.5%"),
    ("OC(Cn1cncn1)(Cn1cncn1)c1ccc(F)cc1F", "87.5%"),
]

###

# Organism: Rattus norvegicus
# PROCEDURE TEXT: DrugMatrix - Regimen: Daily Repeat
# Format: toxicity, organism-based, Sprague-Dawley
# Parameters: regimen Daily Repeat, gender Male, age 6-8 weeks
# EXPERIMENTAL PARAMETERS: in vivo, ip, 0 mg/kg, […], tissue Blood, route intraperitoneal, dose level Control, time 14 day, vehicle 100 % SALINE

# SUBSTANCE, ABSOLUTE SEGMENTED NEUTROPHIL, cells/µL
measured = [
    ("LEAD (II) ACETATE", 2330),
]

###

# Organism: Rattus norvegicus
# PROCEDURE TEXT: DrugMatrix - Regimen: Daily Repeat
# Assay type: toxicity, organism-based, Sprague-Dawley
# Set-up: regimen Daily Repeat, gender Male, age 6-8 weeks
# EXPERIMENTAL PARAMETERS: in vivo, po, 0 mg/kg, 72 h, tissue Blood, route oral GAVAGE, dose level Control, time 3 day, vehicle .5 % CMC

# COMPOUND, ABSOLUTE SEGMENTED NEUTROPHIL (CELLS/uL)
data = [
    ("CCCN1C[C@H](CSC)C[C@@H]2c3cccc4[nH]cc(c34)C[C@H]21 [PERGOLIDE]", 1024.17),
    ("ClC(Cl)Br", 2420.5),
    ("COc1nc(C)nc(Cl)c1N=C1NCCN1", 1443),
    ("Cc1ccc(/N=C/N(C)/C=N/c2ccc(C)cc2C)c(C)c1", 970),
    ("CCn1cc(C(=O)O)c(=O)c2cc(F)c(N3CCNCC3)cc21", 970),
    ("CC(C)(C)NC(=O)[C@@H]1C[C@@H]2CCCC[C@@H]2CN1C[C@@H](O)[C@H](Cc1ccccc1)NC(=O)[C@H](CC(N)=O)NC(=O)c1ccc2ccccc2n1", 1490.83),
    ("ClC(Br)Br", 2420.5),
    ("CN1CCN(CCCN2c3ccccc3Sc3ccc(Cl)cc32)CC1", 1401),
]

###

# Organism: Rattus norvegicus
# PROCEDURE TEXT: DrugMatrix - Regimen: Daily Repeat
# Type: toxicity, organism-based, Sprague-Dawley
# Parameters: regimen Daily Repeat, gender Male, age 6-8 weeks
# EXPERIMENTAL PARAMETERS: in vivo, po, 0 mg/kg, 120 h, tissue Plasma, route oral GAVAGE, dose level Control, time 5 day, vehicle 100 % WATER

# COMPOUND, CHOLESTEROL
rows = [
    ("C=CCC1(C(C)CCC)C(=O)NC(=O)NC1=O (stereo not given)", "71.5 mg/dL"),
    ("Clc1cccc(Cl)c1N=C1NCCN1", "66.5 mg/dL"),
    ("Cn1cc[nH]c1=S", "62.33 mg/dL"),
    ("Nc1c2c(nc3ccccc13)CCCC2", "65.5 mg/dL"),
    ("CNNCc1ccc(C(=O)NC(C)C)cc1", "69.17 mg/dL"),
    ("c1ccc([C@H]2CN3CCSC3=N2)cc1", "82.5 mg/dL"),
    ("Cc1onc(-c2ccccc2Cl)c1C(=O)N[C@@H]1C(=O)N2[C@@H]1SC(C)(C)[C@@H]2C(=O)O", "60.67 mg/dL"),
    ("CC(O)CO (stereo not given)", "60.67 mg/dL"),
    ("C[C@H]1c2cccc(O)c2C(=O)C2=C(O)[C@]3(O)C(=O)C(C(N)=O)=C(O)[C@@H](N(C)C)[C@@H]3[C@@H](O)[C@@H]21.O", "65.33 mg/dL"),
    ("NCCCCCC(=O)O", "60.67 mg/dL"),
]
